- Target desc: Mre11;Rad50NBD (Pyrococcus furiosus;Pyrococcus furiosus, UniProt Q8U1N9;P58301;P58301 1-426;1-195;709-882, |)
- Sequence (P58301 1-195, chain 1 of 2): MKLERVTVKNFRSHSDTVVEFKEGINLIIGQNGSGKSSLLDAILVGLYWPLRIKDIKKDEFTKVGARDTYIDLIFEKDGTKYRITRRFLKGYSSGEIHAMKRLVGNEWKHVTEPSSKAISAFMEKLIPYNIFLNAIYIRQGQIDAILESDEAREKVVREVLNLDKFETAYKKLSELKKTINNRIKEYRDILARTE
- Sequence (P58301 709-882, chain 2 of 2): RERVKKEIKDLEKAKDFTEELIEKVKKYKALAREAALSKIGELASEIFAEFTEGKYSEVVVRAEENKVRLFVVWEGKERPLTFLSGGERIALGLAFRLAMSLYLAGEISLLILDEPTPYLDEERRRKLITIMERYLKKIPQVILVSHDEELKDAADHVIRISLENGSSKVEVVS
- Assay overview: NMR CSP titration
Readout: Kd

Input line: What does the record list as Kd for CACGCACGTAGAAGCTTTTGCTTCTACGTGCGTGAC (structured_DNA) [15-bp hairpin DNA] ?
Output line: ~5.4 µM
